Just for reference, patent US6479531B1 is where these values come from.

Here the recorded log10 of Kb is given for each entry.
- Study system: gastrin receptor (Rattus norvegicus)
- Construct: The stomach was excised and flushed with ca. 1 ml of unbuffered physiological saline solution; from tissue; host or cells: isolated whole stomach of immature rats (ca. 21 days old)
- Sequence (P30553 whole entry): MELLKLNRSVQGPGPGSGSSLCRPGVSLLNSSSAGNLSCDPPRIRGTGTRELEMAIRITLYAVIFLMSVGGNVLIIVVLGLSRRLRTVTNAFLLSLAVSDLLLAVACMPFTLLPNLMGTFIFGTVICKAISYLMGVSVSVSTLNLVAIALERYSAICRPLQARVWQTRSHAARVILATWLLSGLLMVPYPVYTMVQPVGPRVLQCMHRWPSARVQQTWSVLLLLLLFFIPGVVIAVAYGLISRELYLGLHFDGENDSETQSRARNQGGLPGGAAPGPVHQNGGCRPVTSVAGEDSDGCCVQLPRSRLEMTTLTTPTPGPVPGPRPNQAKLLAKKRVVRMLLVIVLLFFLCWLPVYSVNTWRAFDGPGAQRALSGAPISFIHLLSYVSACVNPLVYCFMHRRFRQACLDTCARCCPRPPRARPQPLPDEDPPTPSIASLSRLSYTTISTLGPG
- Assay method text: gastrin antagonist activity in immature rat stomach assay (pentagastrin dose-response, acid secretion)
- Study conditions: isolated immature rat stomach, cumulative pentagastrin dose-response curves, read-out: Gastrin pKb (converted)
Quantity measured: log10 of Kb (log10 of the value in nM)

[[record]]
compound = "O=C(O)c1cccc(NC(=O)c2nc(C3CC4C=CC3C4)[nH]c2CCC23CC4CC(CC(C4)C2)C3)c1 (racemic) [Example 116]"
recorded_number = 0.33

[[record]]
compound = "Cc1ccc(NC(=O)c2nc(C3(C)CCCCC3)[nH]c2COC23CC4CC(CC(C4)C2)C3)cc1C(=O)O"
recorded_number = -0.33

[[record]]
compound = "O=C(O)c1cccc(NC(=O)c2nc(-c3cccc(F)c3)[nH]c2CCC23CC4CC(CC(C4)C2)C3)c1"
recorded_number = 2.36

[[record]]
compound = "O=C(O)c1cc(NC(=O)c2cc(-c3ccc4ccccc4c3)[nH]c2CC2CCCCCC2)cc(C(=O)O)c1"
recorded_number = 3.21

[[record]]
compound = "CC1(C)C2CCC(c3nc(C(=O)Nc4cccc(C(=O)O)c4)c(CCC45CC6CC(CC(C6)C4)C5)[nH]3)C1C2 (stereo not shown)"
recorded_number = 0.62

[[record]]
compound = "Cc1ccccc1-c1nc(C(=O)Nc2ccc(Cl)c(C(=O)O)c2)c(CCC23CC4CC(CC(C4)C2)C3)[nH]1"
recorded_number = 2.38

[[record]]
compound = "O=C(O)c1cc(NC(=O)c2nc(C34CCC(CC3)CC4)[nH]c2CCC23CC4CC(CC(C4)C2)C3)ccc1F"
recorded_number = 1.88

